biological target: mPGES-1 (Homo sapiens (Human), UniProt O14684); test: A549 cell-based assay (PGE2 formation, IL-1β stimulated, 50% human serum); details: A549 cells, IL-1β 5 ng/ml, read-out: mPGES-1 inhibitory effect in the cell assay, IC50
Sequence (O14684 whole entry): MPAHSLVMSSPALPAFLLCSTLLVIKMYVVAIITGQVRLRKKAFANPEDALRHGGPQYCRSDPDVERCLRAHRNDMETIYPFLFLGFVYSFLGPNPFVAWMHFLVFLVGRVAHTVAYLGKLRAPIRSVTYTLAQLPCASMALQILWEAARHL
pIC50: −log10 of the molar value.
For each record, write down the corresponding pIC50.

The recorded pIC50 for `Cn1c(Nc2c(Cl)ccc(CNC(=O)C(C)(C)C)c2Cl)nc2cc(C(=O)NCC(F)(F)C(F)(F)F)c(OCC(F)F)cc21` is > 9.00

The recorded pIC50 for `Cn1c(Nc2c(Cl)ccc(CNC(=O)C(C)(C)F)c2Cl)nc2cc(C(=O)Nc3ccc(F)c(Cl)c3)c(OCC(F)F)cc21` is > 9.00

The recorded pIC50 for Cn1c(Nc2c(Cl)ccc(CNC(=O)C(C)(C)C)c2Cl)nc2cc(C(=O)NC3CC4CCC3C4)c(OCC(F)F)cc21 (stereo not drawn) is > 9.00
